The measurements presented in this section are drawn from paper PMC10311653.

target: T1, wildtype (WT) human interleukin-1β (Homo sapiens, UniProt P01584); test: ELISA; phage ELISA; antigen (100 ng) coated on the plate; phages added (pfu titration) in 3% skim milk in DPBST, 2 h at 37 °C; conditions: one partner purified
T1 construct: human interleukin-1β (hIL-1β); pET28a vector; also called WT hIL-1β; hIL-1β; source: E. coli BL21 (DE3), purified (Ni-NTA, Superdex 75 SEC)
property: binding result

Worked set:
binder="Q15Kcr-D1 phage (scFv, V domains shown, mouse scFv from the Q15Kcr immunization library; source: E. coli XL1-Blue with M13KO7 (ΔpIII) hyperphage, monoclonal phage, PEG 8000/NaCl precipitated) VH: EVQLQESGAELVKPGASVKLSCTASGFNIEDTYIHWVKQRPEQGLEWIGRIDPANDNTKYDPKFQGKATITEDTSSNTAYLQLSSLTSEDTAVYYCAIHYYGSFAYWGQGTLVTVSA VL: DILMTQSRKFMSTSVGDRVSVTCKASQNVGTNVAWYQQKPGQSPEALIYSASYRYSGVPDRFTGSGSGTDFTLTISNVQSEDLADYFCQQYNTYPYTFGGGTKLEMK" value_observed=binds
binder="Q15Kcr-C1 phage (scFv, V domains shown, mouse scFv from the Q15Kcr immunization library; source: E. coli XL1-Blue with M13KO7 (ΔpIII) hyperphage, monoclonal phage, PEG 8000/NaCl precipitated) VH: EVQLQQSGAELVKPGASVKLSCTASGFNIKDTYIHWVKQRPEQGLEWIGRIDPADGNTKYDPKFQGKATITADTSSNTAYLQLSSLTSEDTAVYYCAIHYYGSFPYWGQGTLVTVSA VL: DIQMTQTTSSLSASLGDRVSISCRTSQDISNYLNWYQQKPDGTLKLLIYFTSRLHSGVPSRFSGSGSGTDYSLTISNLEQEDIATYFCQQGKTLPYTFGGGTKLELK" value_observed=binds
binder="Q15Kcr-B6 phage (scFv, V domains shown, mouse scFv from the Q15Kcr immunization library; source: E. coli XL1-Blue with M13KO7 (ΔpIII) hyperphage, monoclonal phage, PEG 8000/NaCl precipitated) VH: EVQLQESGAELVKPGASVKLSCTASGFNIKDTYIHWVKQRPEQGLEWIGRIDPANVNTKYDPKFQGKATITADTSSNTAYLQLSSLTSEDTAVYYCAIHYYGSFAHWGQGTLVTVPA VL: DIVMTQSHKFMSTSVGDRVSITCKASQDVGTAVAWYQQKPGQSPKLLIYWASTRHTGVPDRFTGSGSGTDFTLTISNVQSEDLADYFCQQYSSYPLTFGSGTKLEIK" value_observed=binds
binder="Q15Kcr-H2 phage (scFv, V domains shown, mouse scFv from the Q15Kcr immunization library; source: E. coli XL1-Blue with M13KO7 (ΔpIII) hyperphage, monoclonal phage, PEG 8000/NaCl precipitated) VH: EVQLQQSGAELVKPGASVKLSCTASGFNIKDTYIHWVKQRPEQGLEWIGRIDPANVNTKYDPKFQGKATITADTSSNTAYLQLSSLTSEDTAVYYCAIHYYGSFAHWGQGTLVTVSA VL: DILMTQSQKFMSTSVGDRVSVTCKASQNVGTNVAWYQQKPGQSPKALIYQASYRYSGVPDRFTGSGSGTDFTLTISNVQSEDLAEYFCQQYNSYPYTFGGGTKLELK" value_observed=binds

# ---- query binder ----
Identify the reported binding result for the following entry. Q15Kcr-H11 phage (scFv, V domains shown, mouse scFv from the Q15Kcr immunization library; source: E. coli XL1-Blue with M13KO7 (ΔpIII) hyperphage, monoclonal phage, PEG 8000/NaCl precipitated) VH: EVQLQQSGAELVKTGASVKLSCTASGFSIKDTYIHWVKQRPEQGLEWIGRIDPDPATINTKYDPHFQDKATITADTSSNTTYLQLSSLTSEDTAVYYCAIHYYGSFPYWGQGTLVTVSA VL: DIQMTQTTSSLSASLGDRVTISCRASQDISNYLNWYQQKPDGTVKLLIYFTSRLHSGVPSRFSGSGSGTDYSLTISNLEQEDIATYFCQQGNTLPYTFGGGTKLELK
binds
